# Measured on: DOCK8 DHR-1 domain (Mus musculus, UniProt Q8C147, R581A)
# Construct: DHR-1 domain, residues 558-740, pGEX6P-1, E. coli ArcticExpress DE3; GST tag cut with PreScission for ITC, GST fusion kept in vesicle assays
# Experiment: isothermal titration calorimetry
Endpoint: pKd
// field semantics: pKd = negative decimal log of concentration (mol/L)

Enquiry: Give pKd for CCCCCCCC(=O)OC[C@H](COP(=O)(O)O[C@@H]1[C@H](O)[C@H](O)[C@@H](OP(=O)(O)O)[C@H](OP(=O)(O)O)[C@H]1O)OC(=O)CCCCCCC [diC8-PI(4,5)P2]
Return: 4.19

###

# Measured on: DOCK8 DHR-1 domain (Mus musculus, UniProt Q8C147, R570A)
# Construct: DHR-1 domain, residues 558-740, pGEX6P-1, E. coli ArcticExpress DE3; GST tag cut with PreScission for ITC, GST fusion kept in vesicle assays
# Experiment: isothermal titration calorimetry
Endpoint: Kd (µM)
Number in µM, nothing else.

Enquiry: Recall and state the measured Kd for CCCCCCCC(=O)OC[C@H](COP(=O)(O)O[C@@H]1[C@H](O)[C@H](O)[C@@H](OP(=O)(O)O)[C@H](OP(=O)(O)O)[C@H]1O)OC(=O)CCCCCCC [diC8-PI(4,5)P2] .
Return: 42.9

###

# Measured on: DOCK8 DHR-1 domain (Mus musculus, UniProt Q8C147, K576A)
# Construct: DHR-1 domain, residues 558-740, pGEX6P-1, E. coli ArcticExpress DE3; GST tag cut with PreScission for ITC, GST fusion kept in vesicle assays
# Sequence (Q8C147 558-740 K576A): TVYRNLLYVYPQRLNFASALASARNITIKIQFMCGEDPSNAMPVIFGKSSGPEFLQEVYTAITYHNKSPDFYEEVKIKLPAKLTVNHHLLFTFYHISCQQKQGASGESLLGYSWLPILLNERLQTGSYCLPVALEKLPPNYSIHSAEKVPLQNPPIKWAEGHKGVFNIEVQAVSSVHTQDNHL
# Experiment: isothermal titration calorimetry
Endpoint: pKd
Scale: pKd equals -log10([C]), with [C] in mol/L.

Enquiry: Tell us which pKd value is on record for CCCCCCCC(=O)OC[C@H](COP(=O)(O)O[C@@H]1[C@H](O)[C@H](O)[C@@H](OP(=O)(O)O)[C@H](OP(=O)(O)O)[C@H]1O)OC(=O)CCCCCCC [diC8-PI(4,5)P2]
Return: 4.43
